Test system: MDA-MB-468 complex spheroids with HUVEC/MSC, viability
Assay Summary: Anticancer human tumor MDA-MB-468 cell line growth inhibition; active = viability on the fitted dose curve at most 10% of control; inactive = the rest;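 also: spheroids exposed to agents for seven days; 100% = DMSO vehicle control viability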
Condition Notes: second compound 0.316 µM; first compound 0.00316 µM
From the text: Multicellular complex tumor spheroid response to LSD1 Inhibitor Iadademstat in combination with a variety of drugs and investigational agents in selected tumor cell lines The current study was undertaken to assess response to LSD1 inhibitors in combination with standard-of-care drugs and investigational agents in solid tumor complex spheroid models as well as in the K-562 leukemia. […] Compounds. […] If the clinical Cmax for an agent had not been determined, the highest concentration tested was 10 microM. […]
Outcomes you can answer with include only these: active, inactive

Req: Look up the recorded call for COc1cc(Nc2ncc3c(n2)-c2ccc(Cl)cc2C(c2c(F)cccc2OC)=NC3)ccc1C(=O)O + NC1CCC(NC2CC2c2ccccc2)CC1 in this test.
Resp: inactive

Req: Look up the recorded call for CC(C)CC(NC(=O)CNC(=O)c1cc(Cl)ccc1Cl)B1OC(=O)CC(CC(=O)O)(C(=O)O)O1 (stereo unspecified) + NC1CC1c1ccc(-c2cccc(O)c2)cc1 in this test.
Resp: inactive

Req: Look up the recorded call for CC[C@@]1(O)C(=O)OCc2c1cc1n(c2=O)Cc2cc3c(CN(C)C)c(O)ccc3nc2-1 + NC1CCC(NC2CC2c2ccccc2)CC1 in this test.
Resp: inactive

Req: Look up the recorded call for CC1COCCN1c1cc(-c2ccnn2C)c2ccnc(-c3ccn[nH]3)c2n1 (stereo unspecified) + NC1CCC(NC2CC2c2ccccc2)CC1 in this test.
Resp: inactive

Req: Look up the recorded call for COc1cc(Nc2ncc3c(n2)-c2ccc(Cl)cc2C(c2c(F)cccc2OC)=NC3)ccc1C(=O)O + NC1CC1c1ccc(-c2cccc(O)c2)cc1 in this test.
Resp: inactive

Req: Look up the recorded call for CC(C)CC(NC(=O)C(Cc1ccccc1)NC(=O)c1cnccn1)B(O)O (stereo unspecified) + NC1CC1c1ccc(-c2cccc(O)c2)cc1 in this test.
Resp: active

Req: Look up the recorded call for Nc1ncn(C2CC(O)C(CO)O2)c(=O)n1 (stereo unspecified) + NC1CC1c1ccc(-c2cccc(O)c2)cc1 in this test.
Resp: inactive

Req: Look up the recorded call for CC[C@@]1(O)C(=O)OCc2c1cc1n(c2=O)Cc2cc3c(CN(C)C)c(O)ccc3nc2-1 + NC1CC1c1ccc(-c2cccc(O)c2)cc1 in this test.
Resp: inactive

Req: Look up the recorded call for CC(C)CC(NC(=O)CNC(=O)c1cc(Cl)ccc1Cl)B1OC(=O)CC(CC(=O)O)(C(=O)O)O1 (stereo unspecified) + NC1CCC(NC2CC2c2ccccc2)CC1 in this test.
Resp: inactive

Req: Look up the recorded call for CC1COCCN1c1cc(-c2ccnn2C)c2ccnc(-c3ccn[nH]3)c2n1 (stereo unspecified) + NC1CC1c1ccc(-c2cccc(O)c2)cc1 in this test.
Resp: inactive

Req: Look up the recorded call for O=C(C=Cn1cnc(-c2cc(C(F)(F)F)cc(C(F)(F)F)c2)n1)NNc1cnccn1 + NC1CC1c1ccc(-c2cccc(O)c2)cc1 in this test.
Resp: inactive

Req: Look up the recorded call for O=C(C=Cn1cnc(-c2cc(C(F)(F)F)cc(C(F)(F)F)c2)n1)NNc1cnccn1 + NC1CCC(NC2CC2c2ccccc2)CC1 in this test.
Resp: inactive

Req: Look up the recorded call for Cn1ncnc1C1c2n[nH]c(=O)c3cc(F)cc(c23)NC1c1ccc(F)cc1 (stereo unspecified) + NC1CC1c1ccc(-c2cccc(O)c2)cc1 in this test.
Resp: inactive

Req: Look up the recorded call for Cn1ncnc1C1c2n[nH]c(=O)c3cc(F)cc(c23)NC1c1ccc(F)cc1 (stereo unspecified) + NC1CCC(NC2CC2c2ccccc2)CC1 in this test.
Resp: inactive

Req: Look up the recorded call for Nc1ncn(C2CC(O)C(CO)O2)c(=O)n1 (stereo unspecified) + NC1CCC(NC2CC2c2ccccc2)CC1 in this test.
Resp: inactive

Req: Look up the recorded call for CC(C)CC(NC(=O)C(Cc1ccccc1)NC(=O)c1cnccn1)B(O)O (stereo unspecified) + NC1CCC(NC2CC2c2ccccc2)CC1 in this test.
Resp: active

* * *

System: MDA-MB-468 complex spheroids with HUVEC/MSC, viability
Assay Summary: Anticancer human tumor MDA-MB-468 cell line growth inhibition;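 also: spheroids exposed to agents for seven days; 100% = DMSO vehicle control viability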
Condition Notes: second compound 10 µM; first compound 0.316 µM; active compounds read low
Friendly reminder: viability, T/C below 50% is true (1), at or above is false (0).

Req: For this molecule, is viability, T/C lower than 50%? Nc1ncn(C2CC(O)C(CO)O2)c(=O)n1 (centres undefined) + NC1CC1c1ccc(-c2cccc(O)c2)cc1
Resp: true (1)

Req: For this molecule, is viability, T/C lower than 50%? COc1cc(Nc2ncc3c(n2)-c2ccc(Cl)cc2C(c2c(F)cccc2OC)=NC3)ccc1C(=O)O + NC1CC1c1ccc(-c2cccc(O)c2)cc1
Resp: true (1)

Req: For this molecule, is viability, T/C lower than 50%? O=C(C=Cn1cnc(-c2cc(C(F)(F)F)cc(C(F)(F)F)c2)n1)NNc1cnccn1 + NC1CCC(NC2CC2c2ccccc2)CC1
Resp: true (1)

Req: For this molecule, is viability, T/C lower than 50%? O=C(C=Cn1cnc(-c2cc(C(F)(F)F)cc(C(F)(F)F)c2)n1)NNc1cnccn1 + NC1CC1c1ccc(-c2cccc(O)c2)cc1
Resp: true (1)

Req: For this molecule, is viability, T/C lower than 50%? CC1(C)CCC(CN2CCN(c3ccc(C(=O)NS(=O)(=O)c4ccc(NCC5CCOCC5)c([N+](=O)[O-])c4)c(Oc4cnc5[nH]ccc5c4)c3)CC2)=C(c2ccc(Cl)cc2)C1 + NC1CCC(NC2CC2c2ccccc2)CC1
Resp: false (0)

Req: For this molecule, is viability, T/C lower than 50%? CC1COCCN1c1cc(-c2ccnn2C)c2ccnc(-c3ccn[nH]3)c2n1 (centres undefined) + NC1CC1c1ccc(-c2cccc(O)c2)cc1
Resp: true (1)

Req: For this molecule, is viability, T/C lower than 50%? O=C(c1cc(Cc2n[nH]c(=O)c3ccccc23)ccc1F)N1CCN(C(=O)C2CC2)CC1 + NC1CC1c1ccc(-c2cccc(O)c2)cc1
Resp: true (1)

Req: For this molecule, is viability, T/C lower than 50%? CC(C)c1c(-c2ccccc2)nc2c(C#N)c[nH]n2c1=O + NC1CC1c1ccc(-c2cccc(O)c2)cc1
Resp: false (0)

Req: For this molecule, is viability, T/C lower than 50%? COc1ccc([C@@H](O)c2cc(-c3ncnc4cc(N5CCOCC5)ccc34)c(F)cc2Cl)nn1 + NC1CCC(NC2CC2c2ccccc2)CC1
Resp: false (0)

Req: For this molecule, is viability, T/C lower than 50%? CC1COCCN1c1cc(C2(S(C)(=N)=O)CC2)nc(-c2ccnc3[nH]ccc23)n1 (centres undefined) + NC1CCC(NC2CC2c2ccccc2)CC1
Resp: true (1)

Req: For this molecule, is viability, T/C lower than 50%? Nc1ncn(C2CC(O)C(CO)O2)c(=O)n1 (centres undefined) + NC1CCC(NC2CC2c2ccccc2)CC1
Resp: true (1)

Req: For this molecule, is viability, T/C lower than 50%? O=C(c1cc(Cc2n[nH]c(=O)c3ccccc23)ccc1F)N1CCN(C(=O)C2CC2)CC1 + NC1CCC(NC2CC2c2ccccc2)CC1
Resp: false (0)

Req: For this molecule, is viability, T/C lower than 50%? CC1(C)CCC(CN2CCN(c3ccc(C(=O)NS(=O)(=O)c4ccc(NCC5CCOCC5)c([N+](=O)[O-])c4)c(Oc4cnc5[nH]ccc5c4)c3)CC2)=C(c2ccc(Cl)cc2)C1 + NC1CC1c1ccc(-c2cccc(O)c2)cc1
Resp: false (0)

Req: For this molecule, is viability, T/C lower than 50%? CC1COCCN1c1cc(-c2ccnn2C)c2ccnc(-c3ccn[nH]3)c2n1 (centres undefined) + NC1CCC(NC2CC2c2ccccc2)CC1
Resp: true (1)

* * *

Test system: MDA-MB-468 complex spheroids with HUVEC/MSC, viability
Assay Summary: Anticancer human tumor MDA-MB-468 cell line growth inhibition;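 also: spheroids exposed to agents for seven days; 100% = DMSO vehicle control viability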
Condition Notes: second compound 1 µM; first compound 0.00316 µM; active compounds read low
Measured Parameter: viability, T/C (%)
Report the figure in % without appending any unit label.

viability, T/C measured on CC(C)CC(NC(=O)C(Cc1ccccc1)NC(=O)c1cnccn1)B(O)O (stereo unspecified) + NC1CC1c1ccc(-c2cccc(O)c2)cc1 = 0.05

viability, T/C measured on CC1COCCN1c1cc(-c2ccnn2C)c2ccnc(-c3ccn[nH]3)c2n1 (stereo unspecified) + NC1CC1c1ccc(-c2cccc(O)c2)cc1 = 29.2

viability, T/C measured on Cn1ncnc1C1c2n[nH]c(=O)c3cc(F)cc(c23)NC1c1ccc(F)cc1 (stereo unspecified) + NC1CCC(NC2CC2c2ccccc2)CC1 = 80.4

viability, T/C measured on Nc1ncn(C2CC(O)C(CO)O2)c(=O)n1 (stereo unspecified) + NC1CCC(NC2CC2c2ccccc2)CC1 = 83

viability, T/C measured on COc1cc(Nc2ncc3c(n2)-c2ccc(Cl)cc2C(c2c(F)cccc2OC)=NC3)ccc1C(=O)O + NC1CC1c1ccc(-c2cccc(O)c2)cc1 = 14.1

viability, T/C measured on CC(C)CC(NC(=O)CNC(=O)c1cc(Cl)ccc1Cl)B1OC(=O)CC(CC(=O)O)(C(=O)O)O1 (stereo unspecified) + NC1CCC(NC2CC2c2ccccc2)CC1 = 52.1

viability, T/C measured on O=C(C=Cn1cnc(-c2cc(C(F)(F)F)cc(C(F)(F)F)c2)n1)NNc1cnccn1 + NC1CC1c1ccc(-c2cccc(O)c2)cc1 = 38.5

viability, T/C measured on CC1COCCN1c1cc(-c2ccnn2C)c2ccnc(-c3ccn[nH]3)c2n1 (stereo unspecified) + NC1CCC(NC2CC2c2ccccc2)CC1 = 72.8

viability, T/C measured on COc1cc(Nc2ncc3c(n2)-c2ccc(Cl)cc2C(c2c(F)cccc2OC)=NC3)ccc1C(=O)O + NC1CCC(NC2CC2c2ccccc2)CC1 = 69

viability, T/C measured on O=C(C=Cn1cnc(-c2cc(C(F)(F)F)cc(C(F)(F)F)c2)n1)NNc1cnccn1 + NC1CCC(NC2CC2c2ccccc2)CC1 = 37.4

viability, T/C measured on CC[C@@]1(O)C(=O)OCc2c1cc1n(c2=O)Cc2cc3c(CN(C)C)c(O)ccc3nc2-1 + NC1CC1c1ccc(-c2cccc(O)c2)cc1 = 12.1

viability, T/C measured on Cn1ncnc1C1c2n[nH]c(=O)c3cc(F)cc(c23)NC1c1ccc(F)cc1 (stereo unspecified) + NC1CC1c1ccc(-c2cccc(O)c2)cc1 = 67

viability, T/C measured on Nc1ncn(C2CC(O)C(CO)O2)c(=O)n1 (stereo unspecified) + NC1CC1c1ccc(-c2cccc(O)c2)cc1 = 92.4

viability, T/C measured on CC(C)CC(NC(=O)C(Cc1ccccc1)NC(=O)c1cnccn1)B(O)O (stereo unspecified) + NC1CCC(NC2CC2c2ccccc2)CC1 = 0.63

viability, T/C measured on CC[C@@]1(O)C(=O)OCc2c1cc1n(c2=O)Cc2cc3c(CN(C)C)c(O)ccc3nc2-1 + NC1CCC(NC2CC2c2ccccc2)CC1 = 12.6

viability, T/C measured on CC(C)CC(NC(=O)CNC(=O)c1cc(Cl)ccc1Cl)B1OC(=O)CC(CC(=O)O)(C(=O)O)O1 (stereo unspecified) + NC1CC1c1ccc(-c2cccc(O)c2)cc1 = 41.8
